# log10 of DC50 annotations
Molecular target: NEK7 (Homo sapiens (Human), UniProt Q8TDX7+Q96SW2)
Sequence (Q8TDX7 whole entry): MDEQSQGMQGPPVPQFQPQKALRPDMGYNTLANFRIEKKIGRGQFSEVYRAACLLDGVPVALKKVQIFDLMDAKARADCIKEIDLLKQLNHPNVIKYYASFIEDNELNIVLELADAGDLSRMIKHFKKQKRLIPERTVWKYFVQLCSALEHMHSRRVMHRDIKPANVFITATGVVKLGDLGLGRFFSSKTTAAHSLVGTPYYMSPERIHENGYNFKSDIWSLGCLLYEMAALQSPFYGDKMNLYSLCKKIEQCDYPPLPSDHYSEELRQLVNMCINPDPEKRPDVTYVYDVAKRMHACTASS
Sequence (Q96SW2 whole entry): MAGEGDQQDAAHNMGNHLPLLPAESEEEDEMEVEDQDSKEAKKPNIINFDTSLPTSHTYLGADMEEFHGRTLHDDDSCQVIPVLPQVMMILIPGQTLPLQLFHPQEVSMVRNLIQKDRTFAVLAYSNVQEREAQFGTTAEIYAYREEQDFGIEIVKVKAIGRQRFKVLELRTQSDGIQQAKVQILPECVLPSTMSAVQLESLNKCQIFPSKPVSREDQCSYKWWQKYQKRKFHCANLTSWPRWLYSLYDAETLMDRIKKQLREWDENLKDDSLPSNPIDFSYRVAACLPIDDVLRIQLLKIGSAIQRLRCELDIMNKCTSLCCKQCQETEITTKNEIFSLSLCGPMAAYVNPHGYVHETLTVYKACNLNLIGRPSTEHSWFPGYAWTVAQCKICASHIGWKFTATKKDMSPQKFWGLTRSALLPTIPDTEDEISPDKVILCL
Sequence (Q16531 2-1140 partner): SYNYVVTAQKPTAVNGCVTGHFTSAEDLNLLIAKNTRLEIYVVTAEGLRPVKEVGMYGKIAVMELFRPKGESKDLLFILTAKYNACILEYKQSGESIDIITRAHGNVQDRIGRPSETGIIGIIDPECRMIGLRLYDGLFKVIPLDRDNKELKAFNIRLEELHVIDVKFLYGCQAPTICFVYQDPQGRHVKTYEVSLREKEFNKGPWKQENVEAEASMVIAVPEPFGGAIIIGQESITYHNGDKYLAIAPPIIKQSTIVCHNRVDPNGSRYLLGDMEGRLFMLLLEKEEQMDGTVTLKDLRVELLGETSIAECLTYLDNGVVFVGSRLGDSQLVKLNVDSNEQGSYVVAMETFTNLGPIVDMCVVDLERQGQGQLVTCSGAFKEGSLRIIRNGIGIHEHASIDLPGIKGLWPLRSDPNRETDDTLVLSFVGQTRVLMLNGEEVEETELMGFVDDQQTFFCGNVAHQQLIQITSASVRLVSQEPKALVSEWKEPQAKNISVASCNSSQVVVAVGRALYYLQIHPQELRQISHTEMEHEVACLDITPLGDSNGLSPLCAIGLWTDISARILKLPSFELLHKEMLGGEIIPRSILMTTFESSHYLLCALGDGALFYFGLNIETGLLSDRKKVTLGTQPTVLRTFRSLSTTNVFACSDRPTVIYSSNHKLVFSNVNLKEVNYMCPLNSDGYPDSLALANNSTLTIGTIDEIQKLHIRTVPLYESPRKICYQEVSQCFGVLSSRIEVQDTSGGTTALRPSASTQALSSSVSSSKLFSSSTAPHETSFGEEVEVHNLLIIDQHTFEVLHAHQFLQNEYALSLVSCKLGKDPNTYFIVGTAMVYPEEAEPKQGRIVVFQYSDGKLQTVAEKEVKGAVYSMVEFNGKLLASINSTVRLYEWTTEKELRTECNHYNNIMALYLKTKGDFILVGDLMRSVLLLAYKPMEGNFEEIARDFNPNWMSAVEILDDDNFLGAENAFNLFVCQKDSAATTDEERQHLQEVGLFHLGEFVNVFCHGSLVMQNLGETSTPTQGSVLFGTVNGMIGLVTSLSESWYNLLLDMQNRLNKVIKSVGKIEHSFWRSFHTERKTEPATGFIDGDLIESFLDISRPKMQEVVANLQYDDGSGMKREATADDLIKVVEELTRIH
Assay: NEK7 NanoBiT degradation assay in Cal51 NEK7 NanoBiT cell line
Assay type: cell-based
Details: Cal51 NEK7 NanoBiT cells, 24 hours; read-out: NEK7 NanoBiT DC50
Base-10 log of DC50, unit nM.

{"columns": ["Compound", "Measurement label", "Reported result"],
 "data": [
  ["CC(C)(C(=O)NCc1cc(Cl)c(C2CCC(=O)NC2=O)c(Cl)c1)c1ncc(CC(F)F)cn1 (stereo not shown)", "log10 of DC50", 1.95],
  ["CC(C)(C(=O)NCc1cc(Cl)c(C2CCC(=O)NC2=O)c(Cl)c1)c1cccc(S(N)(=O)=O)c1 (stereo not shown)", "log10 of DC50", 0.30],
  ["CC(C)(C(=O)NCc1cc(Cl)c(C2CCC(=O)NC2=O)c(Cl)c1)c1ncc(C(F)F)cn1 (stereo not shown)", "log10 of DC50", 0.70]
]}

Next up:
Value of measured log10 of DC50 for the entry CC(C)(C(=O)NCc1cc(Cl)c(C2CCC(=O)NC2=O)c(Cl)c1)c1cnc(OC(F)(F)F)cn1 (stereo not shown) : 0.78
